- Tested on: HEK-293T
- experiment_description: Multiplex assay against HEK293T
- Assay type: toxicity, cell-based
- measurement_context: human, 24 h, 10 µM, compound concentration 10 uM, replicate 1
parameter_measured: Total Cell Count
# print the numeric value only

// lookup Total Cell Count for `C[C@@H]1C[C@H]2[C@@H]3CCC4=CC(=O)C=C[C@]4(C)[C@@]3(F)[C@@H](O)C[C@]2(C)[C@@]1(O)C(=O)CO`
453

Likewise for `CN(C)CCCc1cc(C(=O)Nc2ccc(-c3ccncc3)cc2)ccc1O.Cl.Cl` ?
588

Others:
// lookup Total Cell Count for `N#Cc1c(N)nc(SCc2csc(-c3ccc(Cl)cc3)n2)c(C#N)c1-c1ccc(OCCO)cc1`
319
